Give measured IC50 for each item. Keep answers brief.
Molecular target: UniProtKB Q96EB6
Sequence (Q96EB6 whole entry): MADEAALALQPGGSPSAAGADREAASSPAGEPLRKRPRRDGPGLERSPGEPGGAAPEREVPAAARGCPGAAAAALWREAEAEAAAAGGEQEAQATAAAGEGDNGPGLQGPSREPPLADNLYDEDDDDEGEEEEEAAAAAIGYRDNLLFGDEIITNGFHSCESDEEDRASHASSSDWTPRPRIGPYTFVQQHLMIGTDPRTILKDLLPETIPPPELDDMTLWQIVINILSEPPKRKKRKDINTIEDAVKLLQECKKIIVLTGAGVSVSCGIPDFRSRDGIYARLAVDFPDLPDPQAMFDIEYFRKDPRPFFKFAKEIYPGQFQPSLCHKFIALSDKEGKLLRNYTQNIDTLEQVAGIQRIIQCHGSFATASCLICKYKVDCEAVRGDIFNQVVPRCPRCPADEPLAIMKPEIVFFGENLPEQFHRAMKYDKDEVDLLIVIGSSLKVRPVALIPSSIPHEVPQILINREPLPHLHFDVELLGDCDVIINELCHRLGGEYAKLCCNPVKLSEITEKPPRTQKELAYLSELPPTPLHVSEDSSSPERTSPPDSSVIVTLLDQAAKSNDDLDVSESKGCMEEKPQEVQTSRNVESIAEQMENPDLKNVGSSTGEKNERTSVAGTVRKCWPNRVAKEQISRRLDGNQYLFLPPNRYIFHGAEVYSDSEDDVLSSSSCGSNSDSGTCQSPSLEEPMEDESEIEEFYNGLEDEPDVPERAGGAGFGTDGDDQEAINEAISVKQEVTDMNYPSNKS
Experiment: Inhibition of recombinant human SitT1 by Fluor de Lys fluorescence assay
One number for each entry, in µM.

Previously resolved entries follow.
# substance-smiles, measurement-target, IC50 [µM]
records = [
    ("CCCCc1ccc(C(=O)NC(=S)Nc2ccc(NC(=O)CCCCN(C)C)cc2)cc1.Cl", "UniProtKB Q96EB6", 46.3),
    ("CN(C)CCCCNC(=O)c1ccc(NC(=S)NC(=O)c2ccc(C(C)(C)C)cc2)cc1", "UniProtKB Q96EB6", 17.9),
    ("CCCc1ccc(C(=O)NC(=S)Nc2ccc(NC(=O)CCCCN(C)C)cc2)cc1", "UniProtKB Q96EB6", 60.2),
    ("CC(C)c1ccc(C(=O)NC(=S)Nc2ccc(NC(=O)CCCCN(C)C)cc2)cc1", "UniProtKB Q96EB6", 42.7),
    ("CN(C)CCCCC(=O)Nc1ccc(NC(=O)NC(=O)c2ccc(C(C)(C)C)cc2)cc1", "UniProtKB Q96EB6", 21.7),
]

Quick batch: IC50 for everything below.
1. CN(C)CCCC(=O)Nc1ccc(NC(=S)NC(=O)c2ccc(C(C)(C)C)cc2)cc1.Cl
2. CCCCCc1ccc(C(=O)NC(=S)Nc2ccc(NC(=O)CCCCN(C)C)cc2)cc1

[35.8, 36.7]

====

Biological target: NAD-dependent protein deacetylase sirtuin-1 (Homo sapiens) (UniProt Q96EB6)
Test: Inhibition of SirT1 in human ARN8 cells assessed as p53 activation at 5 uM by beta-galactosidase reporter gene assay relative to control
Format: cell-based
measure: fold change (FC)

# substance-smiles, fold change (FC)
records = [
    ("CN(C)CCCCC(=O)Nc1ccc(NC(=S)NC(=O)c2cccc(Br)c2)cc1", 1.1),
    ("CCCCCc1ccc(C(=O)NC(=S)Nc2ccc(NC(=O)CCCCN(C)C)cc2)cc1", 1.1),
    ("COc1ccc(C(=O)NC(=S)Nc2ccc(NC(=O)CCCCN(C)C)cc2)cc1", 1),
    ("CCCCc1ccc(C(=O)NC(=S)Nc2ccc(NC(=O)CCCCN(C)C)cc2)cc1.Cl", 0.91),
]

Now turn to the next molecule.
Request: fold change (FC), test system NAD-dependent protein deacetylase sirtuin-1 (Homo sapiens) (UniProt Q96EB6), entry Cc1cccc(C(=O)NC(=S)Nc2ccc(NC(=O)CCCCN(C)C)cc2)c1
0.94
